# Tested on: KM12 colon
# protocol details: NCI-60 one-dose screen, 48 h (100 = growth as untreated, 0 = no growth, -100 = all killed)
# test context: 10 µM unless noted
About 83,000 compounds went through this panel and 20% of them were active in at least one assay; those are over-represented in the sample as a whole. Activity calls are given as the source filed them. How the source made its calls: active means growth percent below 10; inactive means the rest.
quantity: growth

Example results:
CC1c2ccccc2N(S(=O)(=O)c2ccccc2)C1C (stereo not drawn)
60% (inactive)
C#CCN=C[C@]12CC[C@@H](C(=C)C)[C@@H]1[C@H]1CC[C@@H]3[C@@]4(C)CCC(=O)C(C)(C)[C@@H]4CC[C@@]3(C)[C@]1(C)CC2
61% (inactive)

Field: growth (KM12 colon). Entry: N#C/C(=C\c1ccc(-c2ccc(F)cc2)o1)c1nc(-c2ccco2)cs1
60.6% (inactive)
